# test_summary: CCTE_Mundy_HCI_hNP1_Casp3_7: CCTE's Caspase-Glo 3/7 Assay in human neuroprogenitor cells for Apoptosis, Mundy Lab (AID 2284240)
Calls of active or inactive are those of the source. How the source made its calls: active means hit-call score of the fitted dose curve at least 0.9, where 1 is the maximum; inactive means score below 0.9.
observed_property: AC50

{"columns": ["mol_smiles", "observed_property", "measurement"],
 "data": [
  ["Cn1cc[nH]c1=S", "AC50", "inactive"],
  ["C[C@]12C=CC(=O)C=C1CC[C@H]1[C@@H]3C[C@@H](O)[C@](O)(C(=O)CO)[C@@]3(C)C[C@H](O)[C@@]12F", "AC50", "23 µM (active)"],
  ["c1ccc2cc3ccccc3cc2c1", "AC50", "inactive"],
  ["CCCC(CCC)C(=O)O", "AC50", "1500 µM (active)"],
  ["NNC(=O)c1ccncc1", "AC50", "inactive"],
  ["FC(F)(F)C(F)(F)C(F)(F)C(F)(F)C(F)(F)C(F)(F)I", "AC50", "inactive"],
  ["FC(F)=C(F)C(F)(F)C(F)(F)C(F)(F)C(F)(F)C(F)(F)C(F)(F)F", "AC50", "inactive"]
]}

====

# test_summary: ATG_AP_1_CIS: Attagene CIS-FACTORIAL HepG2 Assay for human Activator Protein 1 (AP-1) (AID 2282931)
# assay_context: HepG2 Attagene cis-factorial AP-1 reporter mRNA; actives raise or lower the signal
Calls of active or inactive are those of the source. The calls were made as follows: active = hit-call score of the fitted dose curve at least 0.9, where 1 is the maximum; inactive = score below 0.9.
Labels: 1 (active), -1 (inactive)

{"columns": ["compound", "category_label"],
 "data": [
  ["CCOC(N)=O", -1],
  ["OC[C@H]1O[C@@](CO)(O[C@H]2O[C@H](CO)[C@@H](O)[C@H](O)[C@H]2O)[C@@H](O)[C@@H]1O", -1],
  ["NC(=O)NN=Cc1ccc([N+](=O)[O-])o1", 1],
  ["COc1cc2c(c(OC)c1OC)-c1ccc(OC)c(=O)cc1[C@@H](NC(C)=O)CC2", 1],
  ["CNC(C)=O", -1],
  ["FC(F)C(F)(F)COCC1CO1 (stereo unspecified)", -1],
  ["O=C(NO)C1(NS(=O)(=O)c2ccc(Oc3ccc(F)cc3)cc2)CCOCC1", -1],
  ["CC(=O)c1ccccc1", -1],
  ["OCCNCCO", -1],
  ["CCCCOC(=O)c1ccccc1", -1],
  ["O=C(O)c1cccc(C[C@@H]2COc3ccc(OCc4nc5cc(F)ccc5s4)cc3[C@@H]2O)c1", 1],
  ["Nc1ccn([C@@H]2O[C@H](CO)[C@@H](O)[C@@H]2O)c(=O)n1", -1],
  ["Cc1ncc([C@@H](CCCCCCc2ccc3c(n2)NCCC3)CC(=O)O)cn1", 1],
  ["CCOc1ccc2[nH]cc(C(=O)NCc3ccccc3)c(=O)c2n1", -1],
  ["Cn1c(=O)c2[nH]cnc2n(C)c1=O", -1],
  ["O=C(O)c1ccc2c(c1)nc(C(=O)NC1CCN(C3CC3)CC1)n2Cc1cc(-c2ccc(Cl)s2)on1", -1],
  ["CCCCCCCCN(C)C", -1],
  ["COCc1nnc(-c2ccc[n+]([O-])c2)n1-c1c(Cl)c(Cl)cc2[nH]c(=O)c(=O)[nH]c12", -1],
  ["S=P(N1CC1)(N1CC1)N1CC1", -1],
  ["c1ccc2ncccc2c1", -1],
  ["Cc1nc(-c2ccccn2)ncc1C(=O)Nn1cc(C)c2cc(F)ccc21", -1],
  ["CCn1nc(C)c2c1C(=O)NCC(c1ccc(O)cc1)=N2", -1],
  ["FC(F)=C(F)C(F)(F)C(F)(F)C(F)(F)C(F)(F)C(F)(F)C(F)(F)F", -1],
  ["O=C(N[C@H](CO)[C@H](O)c1ccc([N+](=O)[O-])cc1)C(Cl)Cl", -1],
  ["CCCCCCCCCCCCCCCCOS(=O)(=O)O", 1],
  ["O=S1(=O)CCCO1", -1],
  ["OCCOCCOCCO", -1],
  ["O=C1CN(N=Cc2ccc([N+](=O)[O-])o2)C(=O)N1", 1],
  ["O=c1[nH]cnc2c1ncn2[C@H]1CC[C@@H](CO)O1", -1],
  ["CCCOc1ccc(S(=O)(=O)N2CCN(CC)CC2)cc1-c1nc2c(CC)n(Cc3ccccn3)nc2c(=O)[nH]1", -1],
  ["CC(C)CC(C)O (stereo unspecified)", -1],
  ["O=S(=O)(O)c1ccc(N=Nc2c(O)ccc3cc(S(=O)(=O)O)ccc23)cc1", -1],
  ["c1ccc2c(c1)-c1cccc3c1c-2cc1ccccc13", -1],
  ["O=C(O)c1cccc(C(=O)O)c1", -1],
  ["CCN(CC)C(=S)SSC(=S)N(CC)CC", 1],
  ["C=CCc1cc(S(=O)(=O)c2ccc(O)c(CC=C)c2)ccc1O", 1],
  ["Cn1cc[nH]c1=S", -1],
  ["NC(N)=O", -1],
  ["O=C(Cl)C(F)(F)C(F)(F)C(F)(F)C(=O)Cl", -1],
  ["Cc1ccc(S(=O)(=O)NC(=O)NN2CCCCCC2)cc1", -1],
  ["CCCCCOC(C)=O", -1],
  ["CC1(C)C(=O)N(Cl)C(=O)N1Cl", -1],
  ["NC(=O)N1c2ccccc2C=Cc2ccccc21", -1],
  ["C=CN1CCCC1=O", -1],
  ["CCc1cccc(CC)c1N", -1],
  ["CCCCCCCCCC", -1]
]}

====

# test_summary: ATG_EGR_CIS: Attagene CIS-FACTORIAL HepG2 Assay for human Early Growth Response 1 (EGR1) (AID 2282938)
# assay_context: HepG2 Attagene CIS-FACTORIAL EGR reporter mRNA; actives raise or lower the signal
Calls of active or inactive are those of the source. Rule for the calls: active = hit-call score of the fitted dose curve at least 0.9, where 1 is the maximum; inactive = score below 0.9.
observed_property: outcome

{"columns": ["compound", "observed_property", "measurement"],
 "data": [
  ["COS(C)(=O)=O", "outcome", "inactive"],
  ["CC(C)CCCCCCOC(=O)C1CCCCC1C(=O)OCCCCCCC(C)C (stereo not drawn)", "outcome", "inactive"],
  ["CCOC(N)=O", "outcome", "inactive"],
  ["NCC(F)(F)C(F)(F)C(F)(F)C(F)(F)F", "outcome", "inactive"],
  ["NNC(=O)c1ccncc1", "outcome", "inactive"],
  ["Cn1c(=O)c2[nH]cnc2n(C)c1=O", "outcome", "inactive"],
  ["CC1(C)C(=O)N(Cl)C(=O)N1Cl", "outcome", "inactive"],
  ["CC[C@H](C)C(=O)O[C@H]1C[C@H](O)C=C2C=C[C@H](C)[C@H](CC[C@@H](O)C[C@@H](O)CC(=O)O)[C@H]21", "outcome", "inactive"],
  ["C=CN1CCCC1=O", "outcome", "inactive"],
  ["Cc1ncc([C@@H](CCCCCCc2ccc3c(n2)NCCC3)CC(=O)O)cn1", "outcome", "inactive"],
  ["CCCCCCCCN(C)C", "outcome", "inactive"],
  ["O=C(NO)C1(NS(=O)(=O)c2ccc(Oc3ccc(F)cc3)cc2)CCOCC1", "outcome", "inactive"],
  ["Nc1ccn([C@@H]2O[C@H](CO)[C@@H](O)[C@@H]2O)c(=O)n1", "outcome", "inactive"]
]}

====

# test_summary: APR_HepG2_CellLoss_24hr: Apredica 24-hour HepG2 Assay for Cell Loss (AID 2282908)
# assay_context: high-content imaging
The source made the active and inactive calls. How the source made its calls: active means hit-call score of the fitted dose curve at least 0.9, where 1 is the maximum; inactive means score below 0.9.
Labels: 1 (yes) = active, 0 (no) = inactive

{"columns": ["compound", "category_label"],
 "data": [
  ["O=S(=O)(O)c1ccc(N=Nc2c(O)ccc3cc(S(=O)(=O)O)ccc23)cc1", "0 (no)"],
  ["CC(=O)c1ccccc1", "0 (no)"],
  ["NC(N)=O", "0 (no)"],
  ["C=CN1CCCC1=O", "0 (no)"],
  ["CCOc1ccc2[nH]cc(C(=O)NCc3ccccc3)c(=O)c2n1", "0 (no)"],
  ["CC(C)C(=O)Nc1ccc([N+](=O)[O-])c(C(F)(F)F)c1", "1 (yes)"],
  ["O=c1[nH]cnc2c1ncn2[C@H]1CC[C@@H](CO)O1", "0 (no)"],
  ["Nc1ccn([C@@H]2O[C@H](CO)[C@@H](O)[C@@H]2O)c(=O)n1", "1 (yes)"],
  ["CCCCCCCCCCCCCCO", "1 (yes)"],
  ["O=C(O)c1ccc2c(c1)nc(C(=O)NC1CCN(C3CC3)CC1)n2Cc1cc(-c2ccc(Cl)s2)on1", "0 (no)"],
  ["c1ccc2cc3ccccc3cc2c1", "1 (yes)"],
  ["O=C(O)[C@H](O)[C@@H](O)C(=O)O", "0 (no)"],
  ["CC(C)CC(C)O (configuration not stated)", "0 (no)"],
  ["CNC(C)=O", "0 (no)"],
  ["CC1(C)C(=O)N(Cl)C(=O)N1Cl", "0 (no)"],
  ["COc1cc2c(c(OC)c1OC)-c1ccc(OC)c(=O)cc1[C@@H](NC(C)=O)CC2", "1 (yes)"],
  ["CCCCCCCC1CCC(=O)O1 (configuration not stated)", "0 (no)"],
  ["CCOC(N)=O", "0 (no)"],
  ["C[C@]12C=CC(=O)C=C1CC[C@H]1[C@@H]3C[C@@H](O)[C@](O)(C(=O)CO)[C@@]3(C)C[C@H](O)[C@@]12F", "0 (no)"],
  ["NC(=O)N1c2ccccc2C=Cc2ccccc21", "0 (no)"],
  ["OCC(CO)(CO)CO", "0 (no)"],
  ["CCN(CC)C(=S)SSC(=S)N(CC)CC", "1 (yes)"],
  ["CC(C)c1nnc2ccc(-c3ocnc3-c3cc(F)ccc3F)cn12", "0 (no)"],
  ["Cc1nc(-c2ccccn2)ncc1C(=O)Nn1cc(C)c2cc(F)ccc21", "1 (yes)"],
  ["C[C@@H](Oc1ccc(CNC(=O)c2cccnc2Oc2ccc3c(c2)OCO3)c(F)c1)C(=O)O", "0 (no)"],
  ["CCCCCCCCCCCCCCCCOS(=O)(=O)O", "0 (no)"],
  ["CCCCCCCCN(C)C", "0 (no)"]
]}
